System: c-Abl (mouse);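 note: 11-residue human phosphosite peptides and single-mutation variants displayed on the E. coli surface, counted by deep sequencing, each peptide's frequency after selection divided by its frequency in the unselected input library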;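 note: frequency after pTyr selection over input frequency; kinase dosed for 20-30% of maximal phosphorylation in three min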
Experiment: phosphorylation enrichment, bacterial display (enrichment ratio); higher = better substrate or ligand; peptides without Tyr show the background
Hi there, I'd appreciate the recorded phosphorylation enrichment for every entry that follows.

{"sequence data": "SRDDDYETIAM [NPY1R_Y347]", "phosphorylation enrichment": 0.977}

Here are 5 sequences. What values of phosphorylation enrichment were reported for them?
1. YARECYSALPQ [SARS2_Y52_G51C]
2. CTTIHYNFMCS [TP53_Y234_N239S_YF]
3. CKLVDYDSARH [BIN1_Y150_R145C]
4. QYQEKYKQMEQ [HCN4_Y531_V534M]
5. NTEGGYCCICA [CRELD1_Y328_R329C]

**A:**
0.716
0.548
0.61
0.584
0.894

Here are 7 sequences. What values of phosphorylation enrichment were reported for them?
1. WAFNLYDINKF [KCNIP3_Y174_D179Y_YF]
2. IAINKYEVSLI [MYO7A_Y2136_G2137E]
3. ENAGFYFRISA
4. DFRTTYVNANE [KCNH2_Y475_N470D]
5. TKDTFYKQPMF [GBA_Y451]
6. CTTIHQNYMCN [TP53_Y234_Y234Q]
7. EGGFAYVPLKD [PRIM2_Y208_D204G]

**A:**
1. 0.662
2. 0.598
3. 1
4. 0.405
5. 0.954
6. 0.695
7. 0.699

**Q:** May I ask what phosphorylation enrichment has been recorded for RPFRPYIIRGM [LRP5_Y1531_YF] ?
**A:** 0.532
